# assay_target: UniProt Q14524
# assay_procedure: Qpatch automated patch-clamp, peak Nav1.5 current inhibition, 5-Hz AF-like assay (holding potential -85 mV)
# Format: cell-based
# study_conditions: CHO-K1 cells stably expressing human Nav1.5, holding potential -85 mV, Table 5, read-out: Nav1.5 IC50 (5 Hz, AF Rate)
property_measured: IC50
# number then unit; no other words

Solved cases (2 shown):
Challenge: Request the reported IC50 associated with CC(O)(CS(N)(=O)=O)c1nc(-c2nnn(Cc3cc(OC(F)(F)F)ccc3F)n2)ccc1F (single isomer, unassigned) [Example 44]
Response given: 4.6 µM

Challenge: Request the reported IC50 associated with `C[C@@](O)(CS(N)(=O)=O)c1cccc(-c2nnn(Cc3cc(OC(F)(F)F)ccc3F)n2)n1`
Response given: 4.7 µM

Now turn to the next molecule.
Challenge: Request the reported IC50 associated with CC(O)(CS(N)(=O)=O)c1cccc(-c2cn(Cc3cc(OC(F)(F)F)ccc3F)nn2)n1 (single isomer, unassigned) [Example 59]
Response given: 3.4 µM

----------
# assay_target: human Nav1.5 (Homo sapiens (Human))
# Sequence (Q14524 whole entry): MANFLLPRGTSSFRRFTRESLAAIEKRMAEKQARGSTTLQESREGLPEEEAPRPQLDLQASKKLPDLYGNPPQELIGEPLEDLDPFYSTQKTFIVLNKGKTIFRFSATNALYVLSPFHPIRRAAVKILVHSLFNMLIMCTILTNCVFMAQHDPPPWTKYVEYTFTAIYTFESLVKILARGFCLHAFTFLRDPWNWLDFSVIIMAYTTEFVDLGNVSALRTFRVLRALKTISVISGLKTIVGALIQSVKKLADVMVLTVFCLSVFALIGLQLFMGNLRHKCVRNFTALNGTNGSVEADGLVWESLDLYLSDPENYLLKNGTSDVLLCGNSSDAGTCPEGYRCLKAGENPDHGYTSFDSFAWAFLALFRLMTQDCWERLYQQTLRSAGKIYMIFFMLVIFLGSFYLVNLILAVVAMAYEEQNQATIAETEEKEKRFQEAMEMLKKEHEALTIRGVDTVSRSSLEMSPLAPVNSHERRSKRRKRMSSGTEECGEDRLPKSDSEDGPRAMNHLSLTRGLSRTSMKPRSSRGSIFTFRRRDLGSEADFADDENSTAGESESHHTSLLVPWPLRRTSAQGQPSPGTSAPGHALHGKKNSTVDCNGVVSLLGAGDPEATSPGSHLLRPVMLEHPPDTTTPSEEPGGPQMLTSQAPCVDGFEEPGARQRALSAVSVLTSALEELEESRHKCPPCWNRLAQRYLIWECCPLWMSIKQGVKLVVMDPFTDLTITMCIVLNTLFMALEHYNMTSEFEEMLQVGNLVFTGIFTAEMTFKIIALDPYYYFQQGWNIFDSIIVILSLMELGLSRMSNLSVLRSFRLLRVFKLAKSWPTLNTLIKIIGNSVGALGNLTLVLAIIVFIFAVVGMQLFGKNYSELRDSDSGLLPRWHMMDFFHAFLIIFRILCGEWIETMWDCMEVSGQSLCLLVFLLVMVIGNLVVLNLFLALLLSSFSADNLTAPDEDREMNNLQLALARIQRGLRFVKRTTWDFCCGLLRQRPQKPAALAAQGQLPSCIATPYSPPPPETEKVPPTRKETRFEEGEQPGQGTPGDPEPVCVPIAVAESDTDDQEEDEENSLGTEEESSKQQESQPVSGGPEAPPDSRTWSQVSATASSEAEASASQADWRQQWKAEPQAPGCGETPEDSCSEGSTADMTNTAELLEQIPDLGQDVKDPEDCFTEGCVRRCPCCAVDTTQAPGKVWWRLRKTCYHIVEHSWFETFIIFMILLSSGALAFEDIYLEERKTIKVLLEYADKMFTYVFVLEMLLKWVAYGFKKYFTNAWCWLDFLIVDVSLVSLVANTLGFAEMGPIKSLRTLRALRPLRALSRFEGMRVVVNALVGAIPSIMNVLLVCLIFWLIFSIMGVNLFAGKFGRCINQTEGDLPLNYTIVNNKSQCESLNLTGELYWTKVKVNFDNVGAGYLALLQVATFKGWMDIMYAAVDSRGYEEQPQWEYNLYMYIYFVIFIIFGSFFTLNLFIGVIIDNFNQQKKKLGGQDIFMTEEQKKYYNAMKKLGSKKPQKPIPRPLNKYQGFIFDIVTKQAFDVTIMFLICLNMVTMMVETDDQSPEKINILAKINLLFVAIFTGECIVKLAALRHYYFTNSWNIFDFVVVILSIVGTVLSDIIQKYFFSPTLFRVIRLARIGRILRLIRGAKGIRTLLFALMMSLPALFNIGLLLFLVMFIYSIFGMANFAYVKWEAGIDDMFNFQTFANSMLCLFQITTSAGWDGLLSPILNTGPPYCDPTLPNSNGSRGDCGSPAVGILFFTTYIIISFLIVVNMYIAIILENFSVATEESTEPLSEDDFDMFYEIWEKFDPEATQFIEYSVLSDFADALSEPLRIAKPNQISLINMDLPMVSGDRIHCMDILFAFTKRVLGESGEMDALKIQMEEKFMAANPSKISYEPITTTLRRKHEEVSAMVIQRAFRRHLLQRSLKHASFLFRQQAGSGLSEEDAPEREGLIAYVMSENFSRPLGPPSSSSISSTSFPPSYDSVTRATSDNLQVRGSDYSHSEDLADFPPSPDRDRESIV
# assay_procedure: Qpatch automated patch-clamp, peak Nav1.5 current inhibition, 1 Hz with 50 nM ATX-II (holding potential -100 mV)
# Format: cell-based
# study_conditions: CHO-K1 cells stably expressing human Nav1.5, read-out: Nav1.5 IC50 (1 Hz, ATXII)
pIC50: −log10 of the molar value.
property_measured: pIC50

Solved cases (2 shown):
Challenge: Request the reported pIC50 associated with CC(O)(CS(N)(=O)=O)c1cccc(-c2cnn(Cc3cc(OC(F)(F)F)ccc3F)n2)n1 (single isomer, unassigned) [Example 61]
Response given: < 4.52

Challenge: Request the reported pIC50 associated with CC(O)(CS(N)(=O)=O)c1cccc(-c2cnn(Cc3cc(OC(F)(F)F)ccc3F)n2)n1 (racemic) [Rac-61 + 62]
Response given: < 4.52

New cases:
Challenge: Request the reported pIC50 associated with `C[C@@](O)(CS(N)(=O)=O)c1cccc(-c2nnn(Cc3cc(OC(F)(F)F)ccc3F)n2)n1`
Response given: < 4.52

----------
pIC50 overview
# assay_target: human Nav1.5 (Homo sapiens (Human))
# assay_procedure: Qpatch automated patch-clamp, peak Nav1.5 current inhibition, 5-Hz AF-like assay (holding potential -85 mV)
# Assay type: cell-based
# study_conditions: CHO-K1 cells stably expressing human Nav1.5, holding potential -85 mV, Table 5, read-out: Nav1.5 IC50 (5 Hz, AF Rate)
pIC50 is a log-scale quantity: -log10 of the concentration expressed in molar.

Challenge: Request the reported pIC50 associated with CC(O)(CS(N)(=O)=O)c1ccc(Cl)c(-c2nnn(Cc3cc(OC(F)(F)F)ccc3F)n2)c1 (single isomer, unassigned) [Example 7]
Response given: 5.89

Challenge: Request the reported pIC50 associated with CC(O)(CS(N)(=O)=O)c1cccc(-c2cn(Cc3cc(OC(F)(F)F)ccc3F)nn2)n1 (single isomer, unassigned) [Example 60]
Response given: 5.15

Challenge: Request the reported pIC50 associated with CC(O)(CS(N)(=O)=O)c1cc(-c2nnn(Cc3cc(OC(F)(F)F)ccc3F)n2)ccc1F (single isomer, unassigned) [Example 5]
Response given: 5.10

New cases:
Challenge: Request the reported pIC50 associated with NS(=O)(=O)CC(O)c1cccc(-c2nnn(Cc3cc(OC(F)(F)F)ccc3F)n2)n1 (racemic)
Response given: 5.26

Challenge: Request the reported pIC50 associated with CC(O)(CS(N)(=O)=O)c1cccc(-c2nnn(Cc3cc(OCC(F)(F)F)ccc3F)n2)n1 (single isomer, unassigned) [Rac-29+30]
Response given: 5.60

Challenge: Request the reported pIC50 associated with CC(C)(C(O)c1cccc(-c2ccn(Cc3cc(OC(F)(F)F)ccc3F)n2)n1)S(N)(=O)=O (racemic)
Response given: 4.92

Challenge: Request the reported pIC50 associated with CC(O)(CS(N)(=O)=O)c1cccc(-c2cn(Cc3cc(OC(F)(F)F)ccc3F)nn2)n1 (single isomer, unassigned) [Rac-59 + 60]
Response given: 5.28

Challenge: Request the reported pIC50 associated with CC(O)(CS(N)(=O)=O)c1cccc(-c2nnn(Cc3cccc(C(F)(F)F)c3)n2)n1 (single isomer, unassigned) [Example 40]
Response given: 4.68

Challenge: Request the reported pIC50 associated with CC(O)(CS(N)(=O)=O)c1cccc(-c2nnn(Cc3cc(F)ccc3F)n2)n1 (single isomer, unassigned) [Example 18]
Response given: 4.70

Challenge: Request the reported pIC50 associated with CC(O)(CS(N)(=O)=O)c1cccc(-c2nnn(Cc3cc(Cl)ccc3F)n2)n1 (single isomer, unassigned) [Example 22]
Response given: 5.08
